Tested on: G. duodenalis BRIS/91/HEPU/1279
Experiment: Primary Giardia screen at 10 µM (live-cell imaging, automated counting)
Format: cell-based, Giardia duodenalis
Conditions: 48 h, first singlicate assay
For each of the compounds below, state its % Inhibition n=1 48h.
The response must be a number in % with no trailing unit.

Lookup: Given CCCn1nc2c(cc1=O)CN(Cc1nc(-c3ccco3)no1)CC2 [SN00773497] , state its recorded % Inhibition n=1 48h.
Found: 0.0

Lookup: Given Cc1ccc(NC(=O)Cn2nnc(-c3nc(-c4ccncc4)no3)c2N)cc1 [SN00788097] , state its recorded % Inhibition n=1 48h.
Found: 7.5

Lookup: Given Cc1ccc(CNc2nc(-c3ccco3)nn2C(=O)C(C)C)cc1 [SN00786221] , state its recorded % Inhibition n=1 48h.
Found: 11.1

Lookup: Given Cc1cc(N2CCC(C(=O)N3CCN(c4ccc(F)cc4)CC3)CC2)n2nc(-c3ccccc3)cc2n1 [SN00795072] , state its recorded % Inhibition n=1 48h.
Found: 0.0

Lookup: Given Cc1ccc(NC(=O)Nc2ccc3c(c2)CN(Cc2ccccc2)C3)c(C)c1 [SN00796327] , state its recorded % Inhibition n=1 48h.
Found: 41.2

Lookup: Given COc1cccc(N2CCN(C(=O)c3ccc4noc(-c5ccccc5)c4c3)CC2)c1 [SN00777397] , state its recorded % Inhibition n=1 48h.
Found: 56.5

Lookup: Given Cc1noc2ncnc(N3CCCC(C(=O)N4CCCCCC4)C3)c12 (stereo not drawn) [SN00788609] , state its recorded % Inhibition n=1 48h.
Found: 0.0

Lookup: Given CCn1cc(C2OCCC2CNC/C=C/c2ccccc2OC)cn1 (stereo not drawn) [SN00782244] , state its recorded % Inhibition n=1 48h.
Found: 28.6

Lookup: Given CC(=O)N1CCN(Cc2nc3cc(Cl)ccc3n2C)CC1 [SN00773871] , state its recorded % Inhibition n=1 48h.
Found: 0.0

* * *

For each of the molecules below, state its % Inhibition n=1 48h.
System: G. duodenalis BRIS/91/HEPU/1279
Assay: Primary Giardia screen at 10 µM (live-cell imaging, automated counting)
Type: cell-based, Giardia duodenalis
Settings: 48 h, first singlicate assay
The response must be a number in % with no trailing unit.

Lookup: Notebook entry, G. duodenalis BRIS/91/HEPU/1279 assay: % Inhibition n=1 48h of Cc1nnc(-c2ccc3ccn(CC(=O)NC4CC4)c3c2)o1 [SN00798392] = ?
Found: 0.0

Lookup: Notebook entry, G. duodenalis BRIS/91/HEPU/1279 assay: % Inhibition n=1 48h of O=C(Cn1c(=O)c2nncn2c2ncccc21)N1CCN(c2cccc(Cl)c2)CC1 [SN00799155] = ?
Found: 17.9

Lookup: Notebook entry, G. duodenalis BRIS/91/HEPU/1279 assay: % Inhibition n=1 48h of Cc1ccc2nc(C3=C(N)N(C4CCCCCC4)CC3=O)[nH]c2c1 [SN00785773] = ?
Found: 29.0

Lookup: Notebook entry, G. duodenalis BRIS/91/HEPU/1279 assay: % Inhibition n=1 48h of Cc1c(C(=O)N2CCOCC2C)nnn1-c1cccc2c1CCN(Cc1ccccc1)C2 (stereo not drawn) [SN00779590] = ?
Found: 5.5

Lookup: Notebook entry, G. duodenalis BRIS/91/HEPU/1279 assay: % Inhibition n=1 48h of Cn1cc(-c2cc3n(n2)CCC(=O)N3CC(=O)N2CCC3(CC2)OCCO3)c2ccccc21 [SN00792412] = ?
Found: 10.8

Lookup: Notebook entry, G. duodenalis BRIS/91/HEPU/1279 assay: % Inhibition n=1 48h of Cc1ccc(S(=O)(=O)[C@H]2CS(=O)(=O)C[C@@H]2N2CCC(C(N)=O)CC2)cc1 (relative stereo) [SN00786616] = ?
Found: 0.0

Lookup: Notebook entry, G. duodenalis BRIS/91/HEPU/1279 assay: % Inhibition n=1 48h of Cc1cccc(-c2cc(N3CCN(C(=O)c4cc(Cl)ccc4F)CC3)ncn2)c1 [SN00798065] = ?
Found: 47.1

Lookup: Notebook entry, G. duodenalis BRIS/91/HEPU/1279 assay: % Inhibition n=1 48h of Cc1cc2n(n1)CCCN2CC(=O)N1CCN(c2ccc(Cl)cc2)CC1 [SN00791741] = ?
Found: 2.4

Lookup: Notebook entry, G. duodenalis BRIS/91/HEPU/1279 assay: % Inhibition n=1 48h of CC(=O)Nc1cc(C(=O)NCCCN2CCC(C)CC2)ccc1S(=O)(=O)c1ccc(Cl)cc1 [SN00794609] = ?
Found: 23.9

Lookup: Notebook entry, G. duodenalis BRIS/91/HEPU/1279 assay: % Inhibition n=1 48h of Cc1cccc(NC(=O)CN2CC(c3ccccc3)CC2=O)c1 (stereo not drawn) [SN00784702] = ?
Found: 10.4

Lookup: Notebook entry, G. duodenalis BRIS/91/HEPU/1279 assay: % Inhibition n=1 48h of COc1cccc(CNC(=O)Cn2nc(C(=O)Nc3ccccc3)ccc2=O)c1 [SN00793567] = ?
Found: 4.7

Lookup: Notebook entry, G. duodenalis BRIS/91/HEPU/1279 assay: % Inhibition n=1 48h of CCN(c1cccc(C)c1)S(=O)(=O)c1cc(-c2nc(C)c(C)s2)sc1C [SN00797239] = ?
Found: 10.7

Lookup: Notebook entry, G. duodenalis BRIS/91/HEPU/1279 assay: % Inhibition n=1 48h of COCCCN1C(=O)CSc2c(c(C)nn2-c2ccccc2)C1C(=O)NCc1ccccc1OC (stereo not drawn) [SN00791374] = ?
Found: 0.0

Lookup: Notebook entry, G. duodenalis BRIS/91/HEPU/1279 assay: % Inhibition n=1 48h of O=C(Nc1ccccc1)c1cc(-c2cccs2)n(C2CCS(=O)(=O)C2)n1 (stereo not drawn) [SN00786904] = ?
Found: 1.7

Lookup: Notebook entry, G. duodenalis BRIS/91/HEPU/1279 assay: % Inhibition n=1 48h of CC1CCN(CCCNC(=O)c2ccc(-c3nc(-c4ccccc4)no3)cc2)CC1 [SN00795676] = ?
Found: 23.6

Lookup: Notebook entry, G. duodenalis BRIS/91/HEPU/1279 assay: % Inhibition n=1 48h of CN(C)CC1CN(S(=O)(=O)c2ccccc2)CC12CCOCC2 (stereo not drawn) [SN00801264] = ?
Found: 0.0

Lookup: Notebook entry, G. duodenalis BRIS/91/HEPU/1279 assay: % Inhibition n=1 48h of CCc1nccn1CC1CCCN1 (stereo not drawn) [SN00772783] = ?
Found: 0.0

Lookup: Notebook entry, G. duodenalis BRIS/91/HEPU/1279 assay: % Inhibition n=1 48h of O=S(=O)(c1cccc(F)c1)N1CC(OCc2cccc(F)c2)C1 [SN00792818] = ?
Found: 10.0

Lookup: Notebook entry, G. duodenalis BRIS/91/HEPU/1279 assay: % Inhibition n=1 48h of Cc1scc2nc(C(N)=O)nc(N3CCCC3)c12 [SN00801956] = ?
Found: 22.6

Lookup: Notebook entry, G. duodenalis BRIS/91/HEPU/1279 assay: % Inhibition n=1 48h of COc1cccc(-c2noc(C3CCCCN3C(=O)Nc3ccc(Cl)cc3Cl)n2)c1 (stereo not drawn) [SN00802548] = ?
Found: 5.7

Lookup: Notebook entry, G. duodenalis BRIS/91/HEPU/1279 assay: % Inhibition n=1 48h of COc1ccc(-c2noc(CC(=O)N3CCN(c4ccccn4)CC3)n2)cc1 [SN00787724] = ?
Found: 23.4

Lookup: Notebook entry, G. duodenalis BRIS/91/HEPU/1279 assay: % Inhibition n=1 48h of O=C(CCNS(=O)(=O)c1cccnc1)N1CCCC(c2nc3ccccc3o2)C1 (stereo not drawn) [SN00780535] = ?
Found: 0.0

Lookup: Notebook entry, G. duodenalis BRIS/91/HEPU/1279 assay: % Inhibition n=1 48h of O=C(CCn1ccn2nc(-c3ccccc3Cl)cc2c1=O)NCc1ccc(F)cc1 [SN00799415] = ?
Found: 0.0

Lookup: Notebook entry, G. duodenalis BRIS/91/HEPU/1279 assay: % Inhibition n=1 48h of CCOC(=O)Cc1ccc(NC(=O)N2CCC3(CC2)N=C(c2ccc(F)cc2)C(=O)N3)cc1 [SN00792712] = ?
Found: 14.3

Lookup: Notebook entry, G. duodenalis BRIS/91/HEPU/1279 assay: % Inhibition n=1 48h of O=C(c1cc(CN2CCCC2)on1)N1CCN(C(=O)c2ccco2)CC1 [SN00791727] = ?
Found: 0.0

Lookup: Notebook entry, G. duodenalis BRIS/91/HEPU/1279 assay: % Inhibition n=1 48h of CCOc1ccc2nc(C(=O)N3CCN(c4cccc(C)c4C)CC3)cn2n1 [SN00799885] = ?
Found: 9.3

Lookup: Notebook entry, G. duodenalis BRIS/91/HEPU/1279 assay: % Inhibition n=1 48h of Cc1cc2c(cc1C)N(CC(=O)NCc1cccs1)C(=O)C1CCCC1=N2 (stereo not drawn) [SN00789389] = ?
Found: 11.1

Lookup: Notebook entry, G. duodenalis BRIS/91/HEPU/1279 assay: % Inhibition n=1 48h of CC(=O)N1c2ccc(S(=O)(=O)N3CCCCC3)cc2CC1C(=O)N1CCCCC1 (stereo not drawn) [SN00791893] = ?
Found: 0.0

Lookup: Notebook entry, G. duodenalis BRIS/91/HEPU/1279 assay: % Inhibition n=1 48h of COc1ccc(CCn2c(=O)c3ncccc3n(Cc3ccc(C)cc3)c2=O)cc1OC [SN00789585] = ?
Found: 1.7

Lookup: Notebook entry, G. duodenalis BRIS/91/HEPU/1279 assay: % Inhibition n=1 48h of CCc1ccccc1Nc1nc(N)nc(CN2CCCN(S(=O)(=O)c3ccc(C)cc3)CC2)n1 [SN00771296] = ?
Found: 10.0

Lookup: Notebook entry, G. duodenalis BRIS/91/HEPU/1279 assay: % Inhibition n=1 48h of O=c1[nH]c(CN2CCCCC2)nc2scc(-c3cccs3)c12 [SN00775605] = ?
Found: 0.0

Lookup: Notebook entry, G. duodenalis BRIS/91/HEPU/1279 assay: % Inhibition n=1 48h of Cc1ccc(COCc2nn(C)c3c2CN(S(=O)(=O)c2ccc(F)c(C)c2)CC3)cc1 [SN00796451] = ?
Found: 2.1

Lookup: Notebook entry, G. duodenalis BRIS/91/HEPU/1279 assay: % Inhibition n=1 48h of Cc1ccc(S(=O)(=O)N2CCC3(CC2)NCCN=C3NC2CCCCCC2)c(C)c1 [SN00796055] = ?
Found: 0.0

Lookup: Notebook entry, G. duodenalis BRIS/91/HEPU/1279 assay: % Inhibition n=1 48h of CCn1nc(C(=O)NCCOc2ccccc2)cc1-c1cc(C)sc1C [SN00802783] = ?
Found: 0.0

Lookup: Notebook entry, G. duodenalis BRIS/91/HEPU/1279 assay: % Inhibition n=1 48h of Cc1noc(-c2nn(C)c3c2CN(S(=O)(=O)Cc2cccc(F)c2)CC3)n1 [SN00796798] = ?
Found: 14.3

Lookup: Notebook entry, G. duodenalis BRIS/91/HEPU/1279 assay: % Inhibition n=1 48h of COc1ccc(S(=O)(=O)N(C)c2ccsc2C(=O)NCCC(C)C)cc1 [SN00797030] = ?
Found: 10.4
